Test system: T cells isolated from mouse spleens
Procedure Summary: T cell proliferation inhibition (CFSE flow cytometry, anti-CD3/anti-CD28 stimulation)
Type: cell-based
Measurement Context: Mus musculus, T-cell, 72 h, compound 100 nM, mouse spleen T cells, 3 days, read-out: Proliferation inhibition rate (%)
Readout Type: inhibition at 0.1 µM (%)
Give just the number in %; leave the unit off.

Recorded inhibition at 0.1 µM for Nc1ncccc1C(=O)NCCCCCCCCCCCCN1CCNCC1 on T cells isolated from mouse spleens was 100

Recorded inhibition at 0.1 µM for CC1C2CCCN2CCN1CCCCCCCCCCCCNC(=O)c1cccnc1N (centres unmarked) on T cells isolated from mouse spleens was 100

Recorded inhibition at 0.1 µM for COc1ncccc1C(=O)NCCCCCCCCCCCCN1CCN(C)CC1 on T cells isolated from mouse spleens was 0

Recorded inhibition at 0.1 µM for COC(=O)C1CCN(CCCCCCCCCCCCNC(=O)c2cccnc2N)CC1 on T cells isolated from mouse spleens was 100

Recorded inhibition at 0.1 µM for Nc1ncccc1C(=O)NCCCCCCCCCCCCN1CCC(F)CC1 on T cells isolated from mouse spleens was 100

###

Tested on: Human Bladder cancer cell, T24
Procedure Summary: Relative cell viability CCK-8, T24
Format: cell-based
Measurement Context: Homo sapiens, 48 h, 10 μM
Method: Human-derived breast cancer cell line MCF-7, human-derived lung cancer cell line A549, human-derived colorectal cancer cell line HCT-116, human pancreatic cancer cell line AsPC-1, glioblastoma cell line A172, and melanoma cell line Malme-3M were obtained from the Korean Cell Bank. gastric cancer cell line SNU-719, and bladder cancer cell line T24 were cultured in RPMI-1640 medium containing 10% FBS. […]
Readout Type: viability at 10 µM

Recorded viability at 10 µM for Nc1nc(NC(=O)CCCCCCCCCCCCN2CCN(CCO)CC2)nc2nc[nH]c12 on Human Bladder cancer cell, T24 was 9.29%

Recorded viability at 10 µM for Nc1ncccc1C(=O)NCCCCCCCCCCCCN1CCSC1 on Human Bladder cancer cell, T24 was 7.06%

Recorded viability at 10 µM for O=C(NCCCCCCCCCCCCN1CCN2CCCC2C1)c1cccnc1 (stereo not shown) on Human Bladder cancer cell, T24 was 10.1%

Recorded viability at 10 µM for CN(C)C1CCCCN(CCCCCCCCCCCCNC(=O)c2cccnc2N)C1 (stereo not shown) on Human Bladder cancer cell, T24 was 11%

###

I'd appreciate it if you could supply inhibition at 0.1 µM values for the items below.
Tested on: T cells isolated from mouse spleens
Procedure Summary: T cell proliferation inhibition (CFSE flow cytometry, anti-CD3/anti-CD28 stimulation)
Format: cell-based
Measurement Context: Mus musculus, T-cell, 72 h, compound 100 nM, mouse spleen T cells, 3 days, read-out: Proliferation inhibition rate (%)
Give just the number in %; leave the unit off.

Item: N#CCCCCCCCCCCNC(=O)c1cccnc1N [Compound 79, 2-amino-N-(10-cyano-decyl)-nicotinamide] | inhibition at 0.1 µM: 1.23

Item: CN1CCN(CCCCCCCCCCCCNC(=O)c2ccc(F)cn2)CC1 | inhibition at 0.1 µM: 1.16

Item: Cc1c(Cl)cccc1C(=O)NCCCCCCCCCCCCN1CCN(C)CC1 | inhibition at 0.1 µM: 2.18

Item: O=C(NCCCCCCCCCCCCF)c1cnccc1Cl | inhibition at 0.1 µM: 8.77

Item: Nc1ncccc1C(=O)NCCCCCCCCCCCCN1CCSCC1 | inhibition at 0.1 µM: 100

Item: CN1CCN(CCCCCCCCCCCCNC(=O)c2ccc(C(F)(F)F)cc2N)CC1 | inhibition at 0.1 µM: 6.37

Item: Nc1ncccc1C(=O)NCCCCCCCCCCCCN1CCC(c2ccc([N+](=O)[O-])cc2)CC1 | inhibition at 0.1 µM: 100

Item: Nc1ncccc1C(=O)NCCCN1CCOCC1 | inhibition at 0.1 µM: -4.19

Item: Cc1nn(CCCCCCCCCCCCNC(=O)c2cccnc2N)cc1Br | inhibition at 0.1 µM: 8.33

###

I'd appreciate it if you could supply Relative cell viability (%), SU-DHL-8 values for the items below.
Tested on: Human B Lymphocyte cell line, SU-DHL-8
Procedure Summary: Relative cell viability CCK-8, SU-DHL-8
Type: cell-based
Measurement Context: 1 μM; 48 hours; untreated (DMSO) = 100%
Give just the number in %; leave the unit off.

Recorded Relative cell viability (%), SU-DHL-8 for Cl.Nc1ncccc1C(=O)NCCCCCCCCCCCCN1CC[C@H](N)C1 [Compound 50] on Human B Lymphocyte cell line, SU-DHL-8 was 9.20

Recorded Relative cell viability (%), SU-DHL-8 for Nc1ncccc1C(=O)NCCCCCCCCCCCCN1CC(F)(F)C1 [Compound 122] on Human B Lymphocyte cell line, SU-DHL-8 was 31.84

Recorded Relative cell viability (%), SU-DHL-8 for CC1CCCN(CCCCCCCCCCCCNC(=O)c2cccnc2N)CC1 (centres unmarked) [Compound 39] on Human B Lymphocyte cell line, SU-DHL-8 was 11.48

Recorded Relative cell viability (%), SU-DHL-8 for CC1CN(CCCCCCCCCCCCNC(=O)c2cccnc2N)CC(C)O1 (centres unmarked) [Compound 21] on Human B Lymphocyte cell line, SU-DHL-8 was 9.64

Recorded Relative cell viability (%), SU-DHL-8 for C[C@H]1CNCCN1CCCCCCCCCCCCNC(=O)c1cccnc1N.Cl [Compound 37] on Human B Lymphocyte cell line, SU-DHL-8 was 6.38

Recorded Relative cell viability (%), SU-DHL-8 for CC1(C)CN(CCCCCCCCCCCCC(=O)Nc2nc(N)c3[nH]cnc3n2)CCO1 [Compound 11] on Human B Lymphocyte cell line, SU-DHL-8 was 7.63

Recorded Relative cell viability (%), SU-DHL-8 for Cc1ccc(C2CCN(CCCCCCCCCCCCNC(=O)c3cccnc3N)CC2)cc1 [Compound 55] on Human B Lymphocyte cell line, SU-DHL-8 was 9.36

Recorded Relative cell viability (%), SU-DHL-8 for Nc1ncccc1C(=O)NCCCCCCCCCCCCN1CCC(Oc2ccncc2)CC1 [Compound 38] on Human B Lymphocyte cell line, SU-DHL-8 was 4.16

Recorded Relative cell viability (%), SU-DHL-8 for CC1CNCCN1CCCCCCCCCCCCNC(=O)c1cccnc1N (centres unmarked) [Compound 35] on Human B Lymphocyte cell line, SU-DHL-8 was 1.18

Recorded Relative cell viability (%), SU-DHL-8 for Nc1ncccc1C(=O)NCCCCCCCCCCCCN1CC=CC1 [Compound 129] on Human B Lymphocyte cell line, SU-DHL-8 was 34.26

Recorded Relative cell viability (%), SU-DHL-8 for Cl.O=C(NCCCCCCCCCCCCN1CCNCC1)c1ccc(-c2ccccc2)o1 [Compound 90] on Human B Lymphocyte cell line, SU-DHL-8 was 7.19

###

Test system: Human B Lymphocyte cell line, SU-DHL-8
Procedure Summary: Relative cell viability CCK-8, SU-DHL-8
Format: cell-based
Measurement Context: 10 μM; 48 hours; untreated (DMSO) = 100%
Each entry falls in a class defined on Relative cell viability (%), SU-DHL-8; the bands are Low: < 5%; Mid: ≥ 5% and < 8%; High: ≥ 8%

Exercise: read the entry Nc1ncccc1C(=O)NCCCCCCCCCCCCN1CCN(CCO)CC1 and state which class it falls under.
Low

Exercise: read the entry CC1CN(CCCCCCCCCCCCNC(=O)c2cccnc2N)CC(C)O1 (centres unmarked) and state which class it falls under.
Mid

Exercise: read the entry CC1CCN(CCCCCCCCCCCCNC(=O)c2cccnc2N)C1 (centres unmarked) and state which class it falls under.
Low

Exercise: read the entry Cl.Nc1ncccc1C(=O)NCCCCCCCCCCCCF and state which class it falls under.
High

Exercise: read the entry CC1CN(C)C(CCCCCCCCCCCCNc2ccc3cncnc3n2)N1 (centres unmarked) and state which class it falls under.
High

Exercise: read the entry CC1CNCCN1CCCCCCCCCCCCNC(=O)c1cccnc1N (centres unmarked) and state which class it falls under.
Low

Exercise: read the entry Nc1ncccc1C(=O)NCCCCCCCCCCCCN1CC(F)(F)C1 and state which class it falls under.
High

Exercise: read the entry Cl.O=C(NCCCCCCCCCCCCN1CCNCC1)c1ccc(-c2ccccc2)o1 and state which class it falls under.
Mid

Exercise: read the entry CC1(C)CN(CCCCCCCCCCCCC(=O)Nc2nc(N)c3[nH]cnc3n2)CCO1 and state which class it falls under.
Mid

###

System: T cells isolated from mouse spleens
Procedure Summary: T cell proliferation inhibition (CFSE flow cytometry, anti-CD3/anti-CD28 stimulation)
Type: cell-based
Measurement Context: Mus musculus, T-cell, 72 h, compound 100 nM, mouse spleen T cells, 3 days, read-out: Proliferation inhibition rate (%)
Readout Type: inhibition at 0.1 µM
Kindly write the number and append the unit.

Recorded inhibition at 0.1 µM for Nc1ccncc1C(=O)NCCCCCCCCCCCCF on T cells isolated from mouse spleens was 5.75%

Recorded inhibition at 0.1 µM for CN(C)C1CCN(CCCCCCCCCCCCNC(=O)c2cccnc2N)C1 (stereo not shown) on T cells isolated from mouse spleens was 100%

Recorded inhibition at 0.1 µM for COC(=O)CN1CCN(CCCCCCCCCCCCC(=O)Nc2nc(N)c3[nH]cnc3n2)CC1 on T cells isolated from mouse spleens was 100%

Recorded inhibition at 0.1 µM for O=C(NCCCCCCCCCCCCF)c1ncccc1O on T cells isolated from mouse spleens was 8.63%

Recorded inhibition at 0.1 µM for COc1ccc(CN2CCN(CCCCCCCCCCCCNC(=O)c3cccnc3N)CC2)cc1 on T cells isolated from mouse spleens was 100%

Recorded inhibition at 0.1 µM for Cc1ccc(C(=O)NCCCCCCCCCCCCN2CCN(C)CC2)nc1 on T cells isolated from mouse spleens was 13.2%

Recorded inhibition at 0.1 µM for Nc1nc(NC(=O)CCCCCCCCCCCCN2CCNCC2)nc2nc[nH]c12 on T cells isolated from mouse spleens was 32.5%

Recorded inhibition at 0.1 µM for CN1CCN(CCCCCCCCCCCCNC(=O)c2cccnc2O)CC1 on T cells isolated from mouse spleens was -3.18%

Recorded inhibition at 0.1 µM for CN1CCN(CCCCCCCCCCCCNC(=O)c2ccccc2Cc2ccccc2)CC1 on T cells isolated from mouse spleens was 4.05%

Recorded inhibition at 0.1 µM for CN1CCN(CCCCCCCCCCCCNC(=O)c2ccnc(Cl)c2Cl)CC1 on T cells isolated from mouse spleens was 9.41%

Recorded inhibition at 0.1 µM for CN1CCN(CCCCCCCCCCCCNC(=O)c2ccccc2-n2cccc2)CC1 on T cells isolated from mouse spleens was 4.87%

Recorded inhibition at 0.1 µM for CN1CCN(CCCCCCCCCCCCNC(=O)c2cccnc2Cl)CC1 on T cells isolated from mouse spleens was 4.82%

Recorded inhibition at 0.1 µM for C[C@@H](C(=O)O)N(C=O)CCCCCCCCCCCCNC(=O)c1cccnc1N on T cells isolated from mouse spleens was -5.22%

Recorded inhibition at 0.1 µM for N#CCCCCCCCCCCNC(=O)c1ccccc1Br [Compound 77, 2-Bromo-N-(10-cyano-decyl)benzamide] on T cells isolated from mouse spleens was -3.97%

Recorded inhibition at 0.1 µM for Nc1ncccc1C(=O)NCCCCCCCCCCCCN1CCC2(CC1)CC2 on T cells isolated from mouse spleens was 28.5%

Recorded inhibition at 0.1 µM for CCOC(=O)C1CCCN(CCCCCCCCCCCCNC(=O)c2cccnc2N)C1 (stereo not shown) on T cells isolated from mouse spleens was 100%

Recorded inhibition at 0.1 µM for Nc1ncccc1C(=O)NCCCCCCCCCCCCN1CCN(CC2CCCCC2)CC1 on T cells isolated from mouse spleens was 100%

Recorded inhibition at 0.1 µM for Nc1ncccc1C(=O)NCCCCCCCCF [Compound 61, 2-Amino-N-(8-fluoro-octyl)-nicotinamide] on T cells isolated from mouse spleens was -6.37%

Recorded inhibition at 0.1 µM for CN1CCN(CCCCCCCCCCCCNC(=O)c2ccccc2-c2ccccc2)CC1 on T cells isolated from mouse spleens was -2.4%

Recorded inhibition at 0.1 µM for Nc1ncccc1C(=O)NCCCCCCCCCCCCN1CCOCC1 on T cells isolated from mouse spleens was 0%

Recorded inhibition at 0.1 µM for CN(C)CCN1CCN(CCCCCCCCCCCCNC(=O)c2cccnc2N)CC1 on T cells isolated from mouse spleens was 100%

Recorded inhibition at 0.1 µM for Nc1ncccc1C(=O)NCCCCCCCCCCCCN1CCCC1 on T cells isolated from mouse spleens was 100%

Recorded inhibition at 0.1 µM for COc1cccc(OC)c1C(=O)NCCCCCCCCCCCCN1CCN(C)CC1 on T cells isolated from mouse spleens was 2.74%

Recorded inhibition at 0.1 µM for C=CCN(C)CCCCCCCCCCCCNC(=O)c1cccnc1N on T cells isolated from mouse spleens was 100%

Recorded inhibition at 0.1 µM for Nc1ncccc1C(=O)NCCCCCCCCCCCCN1CC2CCCC2C1 (stereo not shown) on T cells isolated from mouse spleens was 100%

Recorded inhibition at 0.1 µM for Nc1ncccc1C(=O)NCCCCCCCCCCCCN1CCC(F)(F)CC1 on T cells isolated from mouse spleens was 26.2%

Recorded inhibition at 0.1 µM for O=C(NCCCCCCCCCCCCF)c1ccncc1I on T cells isolated from mouse spleens was 0%

Recorded inhibition at 0.1 µM for CC1(C)CCN(CCCCCCCCCCCCNC(=O)c2cccnc2N)CC1 on T cells isolated from mouse spleens was 100%

Recorded inhibition at 0.1 µM for O=C(NCCCCCCCCCCCCF)c1ccncc1Nc1cccc(C(F)(F)F)c1 on T cells isolated from mouse spleens was 0%

Recorded inhibition at 0.1 µM for Nc1ncccc1C(=O)NCCCCCCCCCCCCN1CCN(C(=O)C2CC2)CC1 on T cells isolated from mouse spleens was 100%

Recorded inhibition at 0.1 µM for Nc1ncccc1C(=O)NCCCCCCCCCCCCN1CCC(C(F)F)CC1 on T cells isolated from mouse spleens was 100%

Recorded inhibition at 0.1 µM for C[C@@H]1CN(CCCCCCCCCCCCNC(=O)c2cccnc2N)C[C@H](C)O1 on T cells isolated from mouse spleens was 100%

Recorded inhibition at 0.1 µM for O=C(NCCCCCCCCCCCCN1CCN2CCCC2C1)c1cccnc1 (stereo not shown) on T cells isolated from mouse spleens was 100%

Recorded inhibition at 0.1 µM for CC1CN(C(=O)OC(C)(C)C)C(C)CN1CCCCCCCCCCCCNC(=O)c1cccnc1N (stereo not shown) on T cells isolated from mouse spleens was 100%

Recorded inhibition at 0.1 µM for CN1CCN(CCCCCCCCCCCCNC(=O)c2ccc(-c3ncn[nH]3)cc2)CC1 on T cells isolated from mouse spleens was -0.58%

Recorded inhibition at 0.1 µM for Nc1ncccc1C(=O)NCCCCCCCCCCCCn1ccc2ccc(I)cc21 on T cells isolated from mouse spleens was -1.9%

Recorded inhibition at 0.1 µM for CS(=O)(=O)c1ncccc1C(=O)NCCCCCCCCCCCCF on T cells isolated from mouse spleens was 0%
